Molecular target: T1, human PVRIG on cells (human, UniProt Q6DKI7 1-326)
T1 construct: whole, on cells; over-expressed on HEK cells or endogenous on Jurkat and CD8 T cells; also called hPVRIG; HEK hPVRIG cells
T1 sequence (looked up): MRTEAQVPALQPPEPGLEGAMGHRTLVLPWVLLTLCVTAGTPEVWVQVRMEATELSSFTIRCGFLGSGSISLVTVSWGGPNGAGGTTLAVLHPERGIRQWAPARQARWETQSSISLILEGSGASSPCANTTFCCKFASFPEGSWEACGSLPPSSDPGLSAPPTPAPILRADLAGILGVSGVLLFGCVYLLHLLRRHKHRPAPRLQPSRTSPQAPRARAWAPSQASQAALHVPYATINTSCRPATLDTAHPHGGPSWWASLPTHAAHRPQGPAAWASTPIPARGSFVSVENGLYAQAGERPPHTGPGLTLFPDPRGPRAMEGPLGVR
Assay: FACS, human PBMC, CD8+ T cells, 10ug/ml
test.readout: gMFIr Human CD8+ T cells
Please reply with the value in numeric form only.

Request: // lookup gMFIr Human CD8+ T cells for CHA.7.543 (antibody, V domains shown) VH: QVQLKESGPGLVAPSQSLSITCTVSGFSLSGYGIKWVRQPPGKGLEWLGTIWGDGSTDYNSALKSRLSISKDNSKSQVFLKMTSLQTDDTARYYCASDSLGITFGYWGQGTLVTVSA VL: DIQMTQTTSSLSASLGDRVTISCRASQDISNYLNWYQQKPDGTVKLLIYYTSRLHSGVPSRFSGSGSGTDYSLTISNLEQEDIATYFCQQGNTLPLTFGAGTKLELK
Response: 4.33

Request: Which gMFIr Human CD8+ T cells is listed for CHA.7.544 (antibody, V domains shown) VH: QVQLKESGPGLVAPSQSLSITCTVSGFSLTSYAITWVRQPPGKGLEWLGVIWPGGGTNYNSALKSRLSISKDNSKSHLFLKMNSLQTDDTARYYCVRSYDGYLDWYFDVWGTGTTVTVSS VL: NIVMTQSPKSMSMSVGERVTLSCKASENVGTYVSWYQQKPDQSPKLLIYGASNRYTGVPDRFTGSGSATDFTLIISSVQAEDLSDYHCGQSYSYPYTFGGGTKLEII ?
Response: 2.54

Request: Could you share which gMFIr Human CD8+ T cells value was measured for CHA.7.546 (antibody, V domains shown) VH: QIQLVQSGPELKKPGETVKISCKASGYTFTTYGMSWVKQAPGKGLKWMGWINTYSGVSTYADDFEGRFAFSLETSVSTAYLQINNLKNEDTATYFCARLGRGSTTGAGYLDVWGTGTTVTVSS VL: DIVLTQSPAIMSASPGEKVSMTCSASSSVSSWYLHWYQQKSGASPKLWIYGTSNLASGVPARFSGSGSGTSYSLTISSVEAEDAATYYCQQYHSDPYTFGSGTKLEIK ?
Response: 2.95

Request: Please give the measured gMFIr Human CD8+ T cells for this binder: CHA.7.526 (antibody, V domains shown) VH: QVQLKESGPGLVAPSQSLSITCTVSGFSLTAYNINWVRQPPGKGLEWLGMIWGDGNTDYNSPLKSRLTISKDNSKSQVFLKMDSLQTDDTARYYCARDLKVRRDSPYTMDYWGQGTSVTVSS VL: NIMMTQSPSSLAVSAGEKVTMSCKSSQSVLYSSNQKNYLAWYQQKPGQSPKLLIYWASNRESGVPDRFTGSGSGTDFTLTISSVQAEDLAVYYCHQYLSSYTFGGGTKLEIK
Response: 1.71

Request: For the binder CHA.7.548 (antibody, V domains shown) VH: EVQLQQSGPELVKPGASVKISCKASGYTFTDYSMNWVKQSHGKSLEWIGDITPNNGSPNYNQKFKDKATLTVDKSSSTVYMELRSLTSEDSAVYYCASLFFDYWGHGTTLTVSS VL: DIVMTQSPSSLSVSAGEKVTMSCKSSQSLLNSGNQKNYLAWYQQKPGQPPKLLIYGASTRDSGVPDRFTGSGSGTDFTLTITSVQAEDLAVYYCQNDHTYPYTFGGGTKLEIK , what gMFIr Human CD8+ T cells is on record?
Response: 3.35

Request: Recorded gMFIr Human CD8+ T cells for CHA.7.547 (antibody, V domains shown) VH: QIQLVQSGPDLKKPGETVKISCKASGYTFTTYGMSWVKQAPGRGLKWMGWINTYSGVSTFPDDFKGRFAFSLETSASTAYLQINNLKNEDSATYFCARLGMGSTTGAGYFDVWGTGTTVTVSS VL: ENVLTQSPAIMSASLGEKVTLSCRASSSVNYMYWYQQKSDASPKLWIYYTSNLAPGVPARFSGSGSGNSYSLTISSVEGEDAATYYCQQFTSSPWTFGGGTKLEIK , please?
Response: 1.13

Request: Please look up its gMFIr Human CD8+ T cells: CHA.7.524 (antibody, V domains shown) VH: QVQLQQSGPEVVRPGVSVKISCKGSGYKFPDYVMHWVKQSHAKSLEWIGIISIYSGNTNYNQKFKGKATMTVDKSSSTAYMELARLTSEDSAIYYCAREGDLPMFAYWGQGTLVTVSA VL: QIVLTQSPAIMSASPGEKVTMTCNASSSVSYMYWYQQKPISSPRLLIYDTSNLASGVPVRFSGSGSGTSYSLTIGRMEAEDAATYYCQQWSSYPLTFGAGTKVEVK
Response: 6.12

Request: Could you share which gMFIr Human CD8+ T cells value was measured for CHA.7.545 (antibody, V domains shown) VH: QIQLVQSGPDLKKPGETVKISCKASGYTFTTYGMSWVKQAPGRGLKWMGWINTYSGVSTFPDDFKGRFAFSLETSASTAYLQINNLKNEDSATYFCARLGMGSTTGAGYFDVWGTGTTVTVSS VL: DIVLTQSPAIMSASPGEKVTMTCSASSSVSSWYLHWYQQKSGASPKLWIYGTSNLASGVPARFSGSGSGTSYSLTISSVEAEDAATYYCQQYRSDPYTFGSGTKLEIK ?
Response: 2.82

Request: Given CHA.7.530 (antibody, V domains shown) VH: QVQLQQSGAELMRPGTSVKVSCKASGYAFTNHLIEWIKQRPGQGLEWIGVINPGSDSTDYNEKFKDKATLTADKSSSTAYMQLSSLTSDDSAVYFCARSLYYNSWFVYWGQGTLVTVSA VL: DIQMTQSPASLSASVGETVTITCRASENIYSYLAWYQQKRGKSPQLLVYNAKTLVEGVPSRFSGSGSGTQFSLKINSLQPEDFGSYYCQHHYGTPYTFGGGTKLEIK , state its recorded gMFIr Human CD8+ T cells.
Response: 6.47

Request: Would you mind telling me what gMFIr Human CD8+ T cells value was observed for CHA.7.535 (antibody, V domains shown) VH: EVQLQQSGPELVKPGASVKISCKTSGYTFTKNTMHWVRQSHGKSLEWIGGINPNSGGASFNQKFMGKATLTVDKSSSTAYMELRSLTSEDSAVYYCARDGYDGDWFFDVWGAGTTVTVSS VL: DIQMNQSPFSLSASLGDTVTITCHASQNIYVWLSWYQQKPGNIPKLLIYKASDLHTGVPSRFSGSGSGTDFTLNISSLQPEDIATYYCQQGQSYPRTFGGGTKLEIK ?
Response: 1.28
